Every entry's value here was drawn from patent US10363239B2.

Reported % DAMGO (1 μM) values follow for various molecules
- System: mu opiate receptor (MOR)
- protocol: MOR agonist activity using [35S]GTPγS binding assay in striatal membranes
- Type: biochemical
- test-parameters: Series C-1; 1 μM compound, relative to DAMGO
assay-metric: % DAMGO (1 μM) (%)

1. NS(=O)(=O)c1ccc(S(=O)(=O)N2CCC3(CC2)OCCN3S(=O)(=O)c2ccc(S(N)(=O)=O)cc2)cc1 [Compound C0034]    76.7
2. CNc1ccc(S(=O)(=O)N2CCC3(CC2)OCCN3S(=O)(=O)c2ccc(NC)cc2)cc1 [Compound C0024]    84.1
3. C[C@@H](NC(=O)[C@@H](N)Cc1ccc(O)cc1)C(=O)NCC(=O)N(C)[C@@H](Cc1ccccc1)C(=O)NCCO [DAMGO, [D-Ala2, N-MePhe4, Gly-ol]-enkephalin, reference compound]    100
